Where these numbers come from: patent US6972319B1

# Target Of Assay: PACAP-R3 (Homo sapiens)
# Assay Protocol: Cyclic AMP SPA on CHO cells expressing PACAP R3
# Format: cell-based
# Parameters: expressed in transfected cells; host or cells: CHO cells (Geneticin selection)
# Test Settings: ratio of EC50 at R2 versus EC50 at R3
No end group written: not given here.
List of R3 Selectivity values.
Quantity Kind: R3 Selectivity

HSDAVFTDNYTRLRKQMAAKKYLNSIKNKR [Peptide R3P65]: 130
HSDGIFTDSYSRYRKQMAVKKYLKAVL-NH2 [PAC24]: 1.5
HSDAVFTDNYTRLRKQMAAKKYLNSIVNKR [Peptide R3P131]: 70
HSDAVFTDNYTRLRKQMARKKYLNSIRNRI [rR3P192]: 60
H-HSDAVFTDNYTRLRKQMAGKKYLNSIRNRI [rR3P190]: 100
HSDAVFTDNYTRLRKQMAVKKYLNSILK [Peptide R3P43]: 10
HSDAVFTDNYTRLRKQVAAKKYLQSILKK [Peptide R3P85]: 30
HSDGIFTDSYKRYRKQMAVKKYLAAVL-NH2 [PAC11]: 0.1

---

# Target Of Assay: PACAP-R3 (Homo sapiens, UniProt P41587)
# Sequence (P41587 24-438): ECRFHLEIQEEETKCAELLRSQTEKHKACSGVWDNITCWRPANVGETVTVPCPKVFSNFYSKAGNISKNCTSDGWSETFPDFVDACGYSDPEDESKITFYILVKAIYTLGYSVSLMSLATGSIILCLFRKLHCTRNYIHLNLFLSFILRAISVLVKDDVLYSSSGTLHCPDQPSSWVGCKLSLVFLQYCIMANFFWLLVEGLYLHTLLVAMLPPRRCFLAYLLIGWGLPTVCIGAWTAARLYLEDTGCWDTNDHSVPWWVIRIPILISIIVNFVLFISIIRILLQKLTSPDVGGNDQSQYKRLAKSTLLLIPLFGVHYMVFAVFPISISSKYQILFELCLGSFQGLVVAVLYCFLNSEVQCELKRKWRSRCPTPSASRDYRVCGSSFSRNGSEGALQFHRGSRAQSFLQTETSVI
# Assay Protocol: Cyclic AMP SPA on CHO cells expressing PACAP R3
# Format: cell-based
# Set-up: expressed in transfected cells; host or cells: CHO cells (Geneticin selection)
# Test Settings: cAMP SPA, CHO cells transfected with PACAP-R3; concentration at which 50% of maximum PACAP27 activity is achieved; NA = no detectable activities; read-out: R3 EC50
No end group written: not given here.
Quantity Kind: EC50 (nM)

HSDGIFTDSYSRYRKQMAVKKKLAAVL-NH2 [PAC22]: 15
HSDGIFTDSYSRYRKQMAVKEYLAAVL-NH2 [PAC21]: 0.24
HSDAVFTDNYTRLRKQMASKKYLNSIRNRI [rR3P193]: 1.9
HSDAVFTDNYTRLRKQMAKKKYLNSIPNRI [rR3P181]: 5.1
HSDAVFTDNYTRLRKQMAAKKYLNSIWNKR [Peptide R3P132]: 0.2
HSDAVFTDNYTRLRKQMARKKYLNSIQNRI [rR3P187]: 1.6
HSDAVFTDNYTRLRKQVAAKKYLNSIKK [Peptide R3P62]: 1.8
HSDAVFTDNYTRLRKQMAAKKYLNSIKNVR [Peptide R3P150]: 0.8
HSDAVFTDNYTRLRKQMAAKKYLQSIKNKRY [Peptide R3P69]: 0.5
H-HSDAVFTDNYTRLRKQMAAKKYLNSIQNKR [Peptide R3P127]: 0.5
HSDAVFTDNYTRLRKQMARKKYLNSIPNRI [rR3P182]: 3.2
